B1: Juxtaposed with another zinc finger protein 1 (Homo sapiens), Q86VZ6 (parent)
chain: MTGIAAASFFSNTCRFGGCGLHFPTLADLIEHIEDNHIDTDPRVLEKQELQQPTYVALSYINRFMTDAARREQESLKKKIQPKLSLTLSSSVSRGNVSTPPRHSSGSLTPPVTPPITPSSSFRSSTPTGSEYDEEEVDYEESDSDESWTTESAISSEAILSSMCMNGGEEKPFACPVPGCKKRYKNVNGIKYHAKNGHRTQIRVRKPFKCRCGKSYKTAQGLRHHTINFHPPVSAEIIRKMQQ
partner: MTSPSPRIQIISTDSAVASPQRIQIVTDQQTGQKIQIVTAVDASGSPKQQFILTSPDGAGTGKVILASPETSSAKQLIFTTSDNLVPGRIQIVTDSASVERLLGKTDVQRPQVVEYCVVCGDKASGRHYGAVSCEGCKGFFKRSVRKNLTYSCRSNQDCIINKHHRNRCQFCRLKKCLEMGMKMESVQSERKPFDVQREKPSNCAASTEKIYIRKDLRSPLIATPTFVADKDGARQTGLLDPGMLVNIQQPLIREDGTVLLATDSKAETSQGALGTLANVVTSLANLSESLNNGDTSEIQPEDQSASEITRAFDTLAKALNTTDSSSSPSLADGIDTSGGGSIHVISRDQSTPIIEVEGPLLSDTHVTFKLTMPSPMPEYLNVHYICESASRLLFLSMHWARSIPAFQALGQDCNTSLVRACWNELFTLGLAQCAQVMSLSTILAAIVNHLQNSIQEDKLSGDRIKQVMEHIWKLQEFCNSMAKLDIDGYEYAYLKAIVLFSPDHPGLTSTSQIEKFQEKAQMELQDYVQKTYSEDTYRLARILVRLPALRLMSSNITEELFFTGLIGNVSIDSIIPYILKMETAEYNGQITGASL

# Variants of: B1
# Condition Summary: with nr2c2_human NR2C2, P49116
Recorded Metric: effect of a mutation on the interaction

A69P: with no effect
K47P: with no effect
